Origin of values: patent US20090088439A1

# tested-system: GABABR1a/GABABR2 heterodimer (Homo sapiens, UniProt O75899+Q9UBS5)
# Construct: membrane preparation
# Sequence (Q9UBS5 15-961 limits assumed): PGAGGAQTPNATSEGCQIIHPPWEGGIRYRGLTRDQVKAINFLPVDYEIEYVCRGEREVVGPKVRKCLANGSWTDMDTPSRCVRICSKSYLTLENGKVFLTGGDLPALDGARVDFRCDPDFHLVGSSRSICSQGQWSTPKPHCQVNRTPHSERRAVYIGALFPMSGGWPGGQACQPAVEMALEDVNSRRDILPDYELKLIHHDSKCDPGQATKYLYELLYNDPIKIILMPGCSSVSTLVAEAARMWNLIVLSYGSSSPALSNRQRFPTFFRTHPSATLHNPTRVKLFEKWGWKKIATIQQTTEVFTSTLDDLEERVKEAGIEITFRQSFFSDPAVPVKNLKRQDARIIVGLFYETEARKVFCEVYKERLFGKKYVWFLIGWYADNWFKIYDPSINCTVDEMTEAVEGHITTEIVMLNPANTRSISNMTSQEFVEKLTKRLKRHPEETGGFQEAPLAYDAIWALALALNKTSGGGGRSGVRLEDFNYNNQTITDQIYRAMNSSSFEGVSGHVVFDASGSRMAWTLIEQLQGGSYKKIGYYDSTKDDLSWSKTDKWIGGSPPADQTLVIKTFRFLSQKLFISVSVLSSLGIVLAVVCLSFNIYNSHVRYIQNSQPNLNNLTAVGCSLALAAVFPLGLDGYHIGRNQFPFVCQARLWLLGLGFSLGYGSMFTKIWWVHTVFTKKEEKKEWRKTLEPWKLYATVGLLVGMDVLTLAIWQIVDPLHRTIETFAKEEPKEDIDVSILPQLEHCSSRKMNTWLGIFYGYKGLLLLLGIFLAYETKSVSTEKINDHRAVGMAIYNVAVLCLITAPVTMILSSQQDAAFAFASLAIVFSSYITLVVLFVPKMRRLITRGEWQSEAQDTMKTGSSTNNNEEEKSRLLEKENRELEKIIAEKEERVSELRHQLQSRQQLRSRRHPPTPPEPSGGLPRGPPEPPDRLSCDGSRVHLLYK
# Sequence (O75899 42-941): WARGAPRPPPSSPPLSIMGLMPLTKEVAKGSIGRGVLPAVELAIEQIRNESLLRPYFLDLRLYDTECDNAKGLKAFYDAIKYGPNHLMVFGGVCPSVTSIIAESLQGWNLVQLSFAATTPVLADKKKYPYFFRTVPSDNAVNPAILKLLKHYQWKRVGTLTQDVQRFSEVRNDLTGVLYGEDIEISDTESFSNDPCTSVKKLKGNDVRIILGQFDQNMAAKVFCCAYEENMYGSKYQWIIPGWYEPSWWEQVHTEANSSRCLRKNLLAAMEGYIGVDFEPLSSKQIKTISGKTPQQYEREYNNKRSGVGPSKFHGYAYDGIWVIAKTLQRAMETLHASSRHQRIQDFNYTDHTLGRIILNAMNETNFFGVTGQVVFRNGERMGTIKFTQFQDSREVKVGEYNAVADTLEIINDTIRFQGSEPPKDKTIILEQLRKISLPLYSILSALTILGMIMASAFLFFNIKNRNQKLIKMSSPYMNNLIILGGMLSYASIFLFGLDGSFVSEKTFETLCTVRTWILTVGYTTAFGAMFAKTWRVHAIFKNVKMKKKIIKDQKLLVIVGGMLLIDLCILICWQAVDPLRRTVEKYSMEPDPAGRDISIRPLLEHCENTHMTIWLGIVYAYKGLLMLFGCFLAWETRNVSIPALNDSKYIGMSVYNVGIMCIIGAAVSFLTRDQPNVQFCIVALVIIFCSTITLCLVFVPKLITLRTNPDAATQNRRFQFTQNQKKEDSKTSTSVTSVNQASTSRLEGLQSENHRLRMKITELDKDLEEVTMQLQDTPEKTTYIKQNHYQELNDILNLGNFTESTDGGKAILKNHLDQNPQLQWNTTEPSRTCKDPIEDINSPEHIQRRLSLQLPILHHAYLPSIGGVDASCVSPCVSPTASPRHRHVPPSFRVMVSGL
# run-description: GTPγS35 radioligand filtration-binding assay for determination of agonist potency
# experimental-setup: membranes of CHO K1 Flp-In cells expressing GABABR1a/GABABR2; compound alone
quantity: EC50 (nM)
// return numeric value only (unit: nM, not printed)

Prompt: Fill in: EC50 of CCCn1c(=O)n(Cc2ccc(Cl)cc2)c(=O)c2nc(CC)c(CC)nc21 [Example 13] is ___
Response: 800

Prompt: Next compound: CCCn1c(=O)n(Cc2ccc(Cl)cc2)c(=O)c2nc(C)c(C)nc21 [Example 15]
Response: 36800

Prompt: Try the compound CC(C)(C)C(=O)Cn1c(=O)n(Cc2ccc(Cl)cc2)c(=O)c2nc3c(nc21)CCCC3 [Example 18]
Response: 500

Prompt: Note, next up: O=c1c2nc3c(nc2n(CC(O)C(F)(F)F)c(=O)n1Cc1ccc(Cl)cc1)CCCC3 (stereo not shown) [Example 19]
Response: 1300
